# tgt: recombinant human SAE enzyme (Homo sapiens, UniProt Q9UBT2)
# Sequence (Q9UBT2 1-640): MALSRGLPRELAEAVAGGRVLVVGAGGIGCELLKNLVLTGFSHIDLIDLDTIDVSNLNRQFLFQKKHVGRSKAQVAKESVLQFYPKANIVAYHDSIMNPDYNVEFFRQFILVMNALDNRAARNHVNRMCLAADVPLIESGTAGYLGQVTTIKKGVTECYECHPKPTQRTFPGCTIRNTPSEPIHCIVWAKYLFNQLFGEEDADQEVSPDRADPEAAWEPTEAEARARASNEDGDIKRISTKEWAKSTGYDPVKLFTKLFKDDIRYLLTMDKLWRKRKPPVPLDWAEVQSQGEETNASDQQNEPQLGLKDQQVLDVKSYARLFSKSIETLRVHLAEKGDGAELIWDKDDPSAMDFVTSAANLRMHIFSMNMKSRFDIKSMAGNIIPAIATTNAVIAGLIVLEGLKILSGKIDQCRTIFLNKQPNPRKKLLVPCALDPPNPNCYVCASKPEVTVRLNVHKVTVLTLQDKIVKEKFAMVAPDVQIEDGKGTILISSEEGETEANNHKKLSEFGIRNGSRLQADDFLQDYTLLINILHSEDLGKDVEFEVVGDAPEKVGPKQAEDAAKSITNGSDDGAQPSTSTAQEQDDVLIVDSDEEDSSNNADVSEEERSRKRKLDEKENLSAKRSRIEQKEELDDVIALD
# Sequence (Q9UBE0 1-346 partner): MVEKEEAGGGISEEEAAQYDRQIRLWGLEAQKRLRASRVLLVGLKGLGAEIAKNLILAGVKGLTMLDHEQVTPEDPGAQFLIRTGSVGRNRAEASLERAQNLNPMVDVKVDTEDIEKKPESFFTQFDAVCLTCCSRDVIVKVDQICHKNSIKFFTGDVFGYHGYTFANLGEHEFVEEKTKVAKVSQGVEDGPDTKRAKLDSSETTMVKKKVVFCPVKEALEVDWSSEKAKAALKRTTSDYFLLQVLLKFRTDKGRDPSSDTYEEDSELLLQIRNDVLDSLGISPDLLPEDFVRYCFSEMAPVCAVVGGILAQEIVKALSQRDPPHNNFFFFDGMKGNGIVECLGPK
# experimental protocol: SAE HTRF Enzyme Assay
# condition description: class symbols A-C
measurement type: IC50

> print(dat)
                                    molecule  reported.result
 1  Cc1cc(Cn2ccc(C(=O)c3cncnc3N[C@@H]3C[C@H](COS(N)(=O)=O)[C@@H](O)[C@@H]3F)c2)on1          < 10 nM
 2  NS(=O)(=O)OC[C@H]1C[C@@H](Nc2ncncc2C(=O)c2ccn(Cc3cccc(OC(F)F)c3)n2)C[C@@H]1O          < 10 nM
 3  CC(C)=C(C)n1ccc(C(=O)c2cncnc2N[C@@H]2C[C@H](COS(N)(=O)=O)[C@@H](O)C2)n1     10 to 100 nM
 4  NS(=O)(=O)OC[C@H]1C[C@@H](Nc2ncncc2C(=O)c2ccn(Cc3ccc(Cl)cc3F)n2)[C@H](O)[C@@H]1O          < 10 nM
 5  NS(=O)(=O)OC[C@H]1C[C@@H](Nc2ncncc2C(=O)c2ccn(Cc3c(F)c(F)c(F)c(F)c3F)n2)[C@H](O)[C@@H]1O          < 10 nM
 6  Cc1cc(Cn2ccc(C(=O)c3cncnc3N[C@@H]3C[C@H](COS(N)(=O)=O)[C@@H](O)[C@@H]3F)c2)no1          < 10 nM
 7  CC(C)Cn1ccc(C(=O)c2cncnc2N[C@@H]2C[C@H](COS(N)(=O)=O)[C@@H](O)[C@H]2O)n1     10 to 100 nM
 8  NS(=O)(=O)OC[C@H]1C[C@@H](Nc2ncncc2C(=O)c2ccn(Cc3cc(C(F)(F)F)ccc3C(F)(F)F)n2)C[C@@H]1O          < 10 nM
 9  NS(=O)(=O)OC[C@H]1C[C@@H](Nc2ncncc2C(=O)c2ccn(C3C=CCCC3)n2)C[C@@H]1O (mixture of isomers)   100 to 1000 nM
10  NS(=O)(=O)OC[C@H]1C[C@@H](Nc2ncncc2C(=O)c2cc(Cl)n(Cc3ccc(C(F)(F)F)o3)c2)[C@@H](F)[C@@H]1O          < 10 nM
11  NS(=O)(=O)OC[C@H]1C[C@@H](Nc2ncncc2C(=O)c2ccn(Cc3cccc(OC(F)(F)F)c3)n2)[C@H](O)[C@@H]1O          < 10 nM
12  Cc1ccc(Cn2ccc(C(=O)c3cncnc3N[C@@H]3C[C@H](COS(N)(=O)=O)[C@@H](O)C3)n2)cc1F          < 10 nM
13  NS(=O)(=O)OC[C@H]1C[C@@H](Nc2ncncc2C(=O)c2ccn(Cc3cc(F)ccc3F)n2)C[C@@H]1O          < 10 nM

----------
# tgt: recombinant human SAE enzyme (Homo sapiens, UniProt Q9UBT2)
# experimental protocol: SAE HTRF Enzyme Assay
# condition description: class symbols A-C
pIC50: −log10 of the molar value.
measurement type: pIC50

molecule	tgt	measurement type	reported result
NS(=O)(=O)OC[C@H]1C[C@@H](Nc2ncncc2C(=O)c2cc(Cl)n(Cc3cccc(C(F)(F)F)c3)c2)[C@@H](F)[C@@H]1O	recombinant human SAE enzyme (Homo sapiens, UniProt Q9UBT2)	pIC50	> 8.00
NS(=O)(=O)OC[C@H]1C[C@@H](Nc2ncncc2C(=O)c2ccn(Cc3c(F)ccc(F)c3F)n2)[C@H](O)[C@@H]1O	recombinant human SAE enzyme (Homo sapiens, UniProt Q9UBT2)	pIC50	> 8.00
Cc1cc(C(=O)c2cncnc2N[C@@H]2C[C@H](COS(N)(=O)=O)[C@@H](O)C2)nn1Cc1cccc(Cl)n1	recombinant human SAE enzyme (Homo sapiens, UniProt Q9UBT2)	pIC50	> 8.00
NS(=O)(=O)OC[C@H]1C[C@@H](Nc2ncncc2C(=O)c2ccn(C3CCc4ccccc43)n2)[C@H](O)[C@@H]1O (single isomer, unassigned) [Compound I-323]	recombinant human SAE enzyme (Homo sapiens, UniProt Q9UBT2)	pIC50	7.00 to 8.00
CC(C)(O)C#CCn1ccc(C(=O)c2cncnc2N[C@@H]2C[C@H](COS(N)(=O)=O)[C@@H](O)C2)n1	recombinant human SAE enzyme (Homo sapiens, UniProt Q9UBT2)	pIC50	6.00 to 7.00
NS(=O)(=O)OC[C@H]1C[C@@H](Nc2ncncc2C(=O)c2ccn(Cc3ccc(F)c(C(F)(F)F)c3)n2)[C@H](O)[C@@H]1O	recombinant human SAE enzyme (Homo sapiens, UniProt Q9UBT2)	pIC50	> 8.00
N#Cc1ccccc1Cn1ccc(C(=O)c2cncnc2N[C@@H]2C[C@H](COS(N)(=O)=O)[C@@H](O)C2)n1	recombinant human SAE enzyme (Homo sapiens, UniProt Q9UBT2)	pIC50	7.00 to 8.00
Cc1cccc(Cn2ccc(C(=O)c3cncnc3N[C@@H]3C[C@H](COS(N)(=O)=O)[C@@H](O)C3)n2)c1F	recombinant human SAE enzyme (Homo sapiens, UniProt Q9UBT2)	pIC50	> 8.00
NS(=O)(=O)OC[C@H]1C[C@@H](Nc2ncncc2C(=O)c2ccn(Cc3ccc(Cl)c(Br)c3)c2)[C@@H](F)[C@@H]1O	recombinant human SAE enzyme (Homo sapiens, UniProt Q9UBT2)	pIC50	> 8.00
CCc1cc(C(=O)c2cncnc2N[C@@H]2C[C@H](COS(N)(=O)=O)[C@@H](O)[C@@H]2F)cn1Cc1cccc(Br)c1	recombinant human SAE enzyme (Homo sapiens, UniProt Q9UBT2)	pIC50	> 8.00
NS(=O)(=O)OC[C@H]1C[C@@H](Nc2ncncc2C(=O)c2ccn(Cc3cccc(Br)c3F)n2)C[C@@H]1O	recombinant human SAE enzyme (Homo sapiens, UniProt Q9UBT2)	pIC50	> 8.00
NS(=O)(=O)OC[C@H]1C[C@@H](Nc2ncncc2C(=O)c2ccn(Cc3cccc(F)c3F)n2)[C@H](O)[C@@H]1O	recombinant human SAE enzyme (Homo sapiens, UniProt Q9UBT2)	pIC50	> 8.00
NS(=O)(=O)OC[C@H]1C[C@@H](Nc2ncncc2C(=O)c2ccn(Cc3ccc(F)cc3Cl)n2)C[C@@H]1O	recombinant human SAE enzyme (Homo sapiens, UniProt Q9UBT2)	pIC50	> 8.00
CC(C)(C)c1cccc(Cn2ccc(C(=O)c3cncnc3N[C@@H]3C[C@H](COS(N)(=O)=O)[C@@H](O)C3)n2)c1	recombinant human SAE enzyme (Homo sapiens, UniProt Q9UBT2)	pIC50	7.00 to 8.00
CC(c1cccc(Br)c1)n1ccc(C(=O)c2cncnc2N[C@@H]2C[C@H](COS(N)(=O)=O)[C@@H](O)C2)n1 (single isomer, unassigned) [Compound I-315]	recombinant human SAE enzyme (Homo sapiens, UniProt Q9UBT2)	pIC50	> 8.00
NS(=O)(=O)OC[C@H]1C[C@@H](Nc2ncncc2C(=O)c2ccn(Cc3ccc(Cl)s3)c2)[C@@H](F)[C@@H]1O	recombinant human SAE enzyme (Homo sapiens, UniProt Q9UBT2)	pIC50	> 8.00
NS(=O)(=O)OC[C@H]1C[C@@H](Nc2ncncc2C(=O)c2ccn(Cc3c(F)cc(F)cc3F)n2)C[C@@H]1O	recombinant human SAE enzyme (Homo sapiens, UniProt Q9UBT2)	pIC50	> 8.00
NS(=O)(=O)OC[C@H]1C[C@@H](Nc2ncncc2C(=O)c2ccn(CCc3cccc(Br)c3)c2)[C@@H](F)[C@@H]1O	recombinant human SAE enzyme (Homo sapiens, UniProt Q9UBT2)	pIC50	> 8.00
NS(=O)(=O)OC[C@H]1C[C@@H](Nc2ncncc2C(=O)c2ccn(Cc3ccccn3)n2)[C@H](O)[C@@H]1O	recombinant human SAE enzyme (Homo sapiens, UniProt Q9UBT2)	pIC50	> 8.00
NS(=O)(=O)OC[C@H]1C[C@@H](Nc2ncncc2C(=O)c2ccn(Cc3csc4ccc(Cl)cc34)c2)C[C@@H]1O	recombinant human SAE enzyme (Homo sapiens, UniProt Q9UBT2)	pIC50	> 8.00
NS(=O)(=O)OC[C@H]1C[C@@H](Nc2ncncc2C(=O)c2ccn(Cc3cccc(I)c3)n2)C[C@@H]1O	recombinant human SAE enzyme (Homo sapiens, UniProt Q9UBT2)	pIC50	> 8.00
COCCn1ccc(C(=O)c2cncnc2N[C@@H]2C[C@H](COS(N)(=O)=O)[C@@H](O)C2)n1	recombinant human SAE enzyme (Homo sapiens, UniProt Q9UBT2)	pIC50	6.00 to 7.00
NS(=O)(=O)OC[C@H]1C[C@@H](Nc2ncncc2C(=O)c2ccn(Cc3ccc(Cl)c(Br)c3)c2)C[C@@H]1O	recombinant human SAE enzyme (Homo sapiens, UniProt Q9UBT2)	pIC50	> 8.00
NS(=O)(=O)OC[C@H]1C[C@@H](Nc2ncncc2C(=O)c2ccn(Cc3ccc(C(F)(F)F)cc3)n2)[C@H](O)[C@@H]1O	recombinant human SAE enzyme (Homo sapiens, UniProt Q9UBT2)	pIC50	> 8.00
NS(=O)(=O)OC[C@H]1C[C@@H](Nc2ncncc2C(=O)c2ccn(Cc3ccc(F)cc3F)n2)[C@H](O)[C@@H]1O	recombinant human SAE enzyme (Homo sapiens, UniProt Q9UBT2)	pIC50	> 8.00
